recorded.conditions: in ethyl acetate, 328.15 K
property: solubility (mole fraction)

If you can, please state the reported solubility (mole fraction) value of "O=C(O)CCCCCCCCCCC(=O)O" .
0.0165

====

recorded.conditions: in acetic acid, 313.15 K
property: solubility (mole fraction)

If you can, please state the reported solubility (mole fraction) value of "O=C(O)CCCCCCCCCCC(=O)O" .
0.0136

====

recorded.conditions: in ethyl acetate, 313.15 K
property: solubility (mole fraction)
Response field accepts a number only; no unit should be typed.

If you can, please state the reported solubility (mole fraction) value of "O=C(O)CCCCCCCCCCC(=O)O" .
0.00638

====

recorded.conditions: in ethanol, 318.15 K
property: solubility (mole fraction)
Response field accepts a number only; no unit should be typed.

If you can, please state the reported solubility (mole fraction) value of "O=C(O)CCCCCCCCCCC(=O)O" .
0.0394

====

recorded.conditions: in ethyl acetate, 318.15 K
property: solubility (mole fraction)
Response field accepts a number only; no unit should be typed.

If you can, please state the reported solubility (mole fraction) value of "O=C(O)CCCCCCCCCCC(=O)O" .
0.00879

====

recorded.conditions: in ethanol, 313.15 K
property: solubility (mole fraction)
Response field accepts a number only; no unit should be typed.

If you can, please state the reported solubility (mole fraction) value of "O=C(O)CCCCCCCCCCC(=O)O" .
0.0305

====

recorded.conditions: in ethyl acetate, 303.15 K
property: solubility (mole fraction)
Response field accepts a number only; no unit should be typed.

If you can, please state the reported solubility (mole fraction) value of "O=C(O)CCCCCCCCCCC(=O)O" .
0.00327

====

recorded.conditions: in acetic acid, 323.15 K
property: solubility (mole fraction)
Response field accepts a number only; no unit should be typed.

If you can, please state the reported solubility (mole fraction) value of "O=C(O)CCCCCCCCCCC(=O)O" .
0.0235

====

recorded.conditions: in ethanol, 293.15 K
property: solubility (mole fraction)
Response field accepts a number only; no unit should be typed.

If you can, please state the reported solubility (mole fraction) value of "O=C(O)CCCCCCCCCCC(=O)O" .
0.0105

====

recorded.conditions: in acetone, 313.15 K
property: solubility (mole fraction)

If you can, please state the reported solubility (mole fraction) value of "O=C(O)CCCCCCCCCCC(=O)O" .
0.0133

====

recorded.conditions: in acetic acid, 288.15 K
property: solubility (mole fraction)
Response field accepts a number only; no unit should be typed.

If you can, please state the reported solubility (mole fraction) value of "O=C(O)CCCCCCCCCCC(=O)O" .
0.00316

====

recorded.conditions: in acetone, 328.15 K
property: solubility (mole fraction)
Response field accepts a number only; no unit should be typed.

If you can, please state the reported solubility (mole fraction) value of "O=C(O)CCCCCCCCCCC(=O)O" .
0.0318

====

recorded.conditions: in acetone, 318.15 K
property: solubility (mole fraction)
Response field accepts a number only; no unit should be typed.

If you can, please state the reported solubility (mole fraction) value of "O=C(O)CCCCCCCCCCC(=O)O" .
0.0178

====

recorded.conditions: in ethanol, 323.15 K
property: solubility (mole fraction)
Response field accepts a number only; no unit should be typed.

If you can, please state the reported solubility (mole fraction) value of "O=C(O)CCCCCCCCCCC(=O)O" .
0.0506

Taken from BigSolDB 2.1.
